Each entry below carries its reported GI50.
Tested on: UACC-257
Experiment: NCI tumour cell line growth inhibition, 48 h
Active and inactive are the calls of the source. Rule as the data show it: active = GI50 up to about 1.1 µM and inactive = higher.
readoutKind: GI50

compound: NNc1nncc2[nH]cnc12
readoutKind: GI50
observed: > 100 µM (inactive)

compound: CC1=C(C(=O)Nc2ccc([N+](=O)[O-])cc2)C(c2ccccc2O)C(C(=O)Nc2ccc([N+](=O)[O-])cc2)=C(C)N1
readoutKind: GI50
observed: 21.7 µM (inactive)

compound: COc1cc(C2c3cc4c(cc3[C@@H](OCCN(C)C)C3COC(=O)[C@H]23)OCO4)cc(OC)c1O (stereo partly drawn)
readoutKind: GI50
observed: 1.68 µM (inactive)

compound: CC1CC2(CC[C@@H]1O)OCCO2 (stereo partly drawn)
readoutKind: GI50
observed: > 100 µM (inactive)

compound: C[C@@H](NC(=O)[C@@H]1C[C@]1(C)COC(=O)c1cc([N+](=O)[O-])cc([N+](=O)[O-])c1)c1cccc2ccccc12
readoutKind: GI50
observed: > 100 µM (inactive)

compound: O=C1c2ccccc2-c2c1c1ccccc1c(=O)n2Cc1ccccc1
readoutKind: GI50
observed: 79.4 µM (inactive)

compound: Cn1c2c(c3ccccc31)CC1c3c(c4ccccc4n3C)CC21 (stereo not drawn)
readoutKind: GI50
observed: > 100 µM (inactive)

compound: C[C@]12CCC[C@H](Cl)C1(O)C[C@H](C(=O)O)CC2 (stereo partly drawn)
readoutKind: GI50
observed: > 100 µM (inactive)

Attribution: ChEMBL document CHEMBL1201862
